Tested on: IFNα-stimulated STAT-dependent luciferase reporter in Kit225 T cells
Experiment: Kit225 T cell assay, IFNα stimulated STAT-dependent luciferase reporter
Format: cell-based, human
Details: Kit225 T cells, 200 U/mL human recombinant IFNα, 5-6 hours, luciferase; read-out: IFNα (Kit225 T Cell Inhibition Data)
Param label: returns criterion met when IC50 < 50 nM, returns criterion not met otherwise, including exact equality.

**Q:** Say whether its IC50 is strictly beneath 50 nM. Entry: CNC(=O)c1cnc(Nc2cc(C)c(F)cn2)cc1Nc1cccc(C(=O)NCCOC)c1OC
**A:** criterion met

**Q:** Say whether its IC50 is strictly beneath 50 nM. Entry: CNC(=O)c1cnc(Nc2ccn(-c3ccc(Cl)cc3)n2)cc1Nc1ccccc1S(C)(=O)=O
**A:** criterion not met

**Q:** Say whether its IC50 is strictly beneath 50 nM. Entry: CNC(=O)c1cnc(Nc2cc(C)c(F)cn2)cc1Nc1cccc(C(=O)NC2CC2)c1OC
**A:** criterion not met

**Q:** Say whether its IC50 is strictly beneath 50 nM. Entry: CNC(=O)c1cnc(Nc2ccc(OC)cn2)cc1Nc1ccccc1C(N)=O
**A:** criterion not met

**Q:** Say whether its IC50 is strictly beneath 50 nM. Entry: CNC(=O)c1cnc(Nc2ccc(C(F)(F)F)cn2)cc1Nc1ccccc1C(N)=O
**A:** criterion not met

**Q:** Say whether its IC50 is strictly beneath 50 nM. Entry: [2H]C([2H])([2H])NC(=O)c1cnc(Nc2cc(CO)ccn2)cc1Nc1cccc(-c2csc(C)n2)c1OC
**A:** criterion met

---

Exercise: state measured log10 IC50 for each of the molecules provided.
System: IFNα-stimulated STAT-dependent luciferase reporter in Kit225 T cells
Assay: Kit225 T cell assay, IFNα stimulated STAT-dependent luciferase reporter
Assay type: cell-based, human
Settings: Kit225 T cells, 200 U/mL human recombinant IFNα, 5-6 hours, luciferase; read-out: IFNα (Kit225 T Cell Inhibition Data)
Form field - Quantity: IC50; Unit: nM; Scale: log10

**Q:** Find the measured log10 IC50 of CNC(=O)c1cnc(Nc2cc(NCc3ccccc3)ncn2)cc1Nc1ccccc1S(C)(=O)=O and report it.
**A:** 2.66

**Q:** Find the measured log10 IC50 of CNC(=O)c1cnc(Nc2ccc(C#N)c(C)n2)cc1Nc1ccc(F)cc1OC and report it.
**A:** 2.57

**Q:** Find the measured log10 IC50 of CNC(=O)c1cnc(Nc2ccc(N3CCOC3=O)cn2)cc1Nc1ccc(Cl)cc1OC and report it.
**A:** 2.28

**Q:** Find the measured log10 IC50 of CNC(=O)c1cnc(Nc2cc3ccccc3cn2)cc1Nc1ccccc1S(C)(=O)=O and report it.
**A:** 2.04

**Q:** Find the measured log10 IC50 of CNC(=O)c1cnc(Nc2cc(C)ccn2)cc1Nc1ccc(F)cc1S(C)(=O)=O and report it.
**A:** 1.95

**Q:** Find the measured log10 IC50 of CNC(=O)c1cnc(Nc2cc(C)c(F)cn2)cc1Nc1cccc(C(=O)NCC2(C#N)CC2)c1OC and report it.
**A:** 2.11

**Q:** Find the measured log10 IC50 of CCc1cccc(Nc2cc(Nc3cc(F)cc(F)c3OC)c(C(=O)NC)cn2)n1 and report it.
**A:** 2.54

**Q:** Find the measured log10 IC50 of CNC(=O)c1cnc(Nc2ccc(C(=O)NC3CC3)cn2)cc1Nc1ccc(Cl)cc1OC and report it.
**A:** 3.14

meta.source: patent US9315494B2
